Measured values drawn from patent US20200131274A1 for this set.

target: human prostate specific membrane antigen (PSMA), full-length, on cells (human, UniProt Q04609 1-750); experiment: cell-based or functional assay
Sequence (Q04609 whole entry): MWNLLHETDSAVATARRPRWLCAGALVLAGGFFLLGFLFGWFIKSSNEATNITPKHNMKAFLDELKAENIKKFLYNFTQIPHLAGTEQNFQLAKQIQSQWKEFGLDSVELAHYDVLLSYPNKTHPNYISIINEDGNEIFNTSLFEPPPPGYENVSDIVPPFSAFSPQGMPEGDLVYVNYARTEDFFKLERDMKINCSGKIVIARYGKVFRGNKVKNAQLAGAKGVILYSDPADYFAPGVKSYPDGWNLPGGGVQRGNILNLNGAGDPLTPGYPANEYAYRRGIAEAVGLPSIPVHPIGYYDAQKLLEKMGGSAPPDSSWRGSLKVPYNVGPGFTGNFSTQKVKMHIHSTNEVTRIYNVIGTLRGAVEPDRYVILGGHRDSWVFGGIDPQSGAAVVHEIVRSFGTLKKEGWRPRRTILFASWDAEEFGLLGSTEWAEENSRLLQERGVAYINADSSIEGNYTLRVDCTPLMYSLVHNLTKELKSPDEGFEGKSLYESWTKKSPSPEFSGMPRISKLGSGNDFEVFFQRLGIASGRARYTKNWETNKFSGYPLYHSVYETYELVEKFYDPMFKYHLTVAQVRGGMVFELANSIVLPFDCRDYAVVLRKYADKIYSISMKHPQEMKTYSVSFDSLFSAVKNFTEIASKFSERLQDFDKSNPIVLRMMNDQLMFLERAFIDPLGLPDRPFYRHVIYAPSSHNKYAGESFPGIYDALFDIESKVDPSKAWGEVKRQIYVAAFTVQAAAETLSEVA
Measurement label: His-ZAP cell killing, human PSMA Average EC50 (pM)

Binder	Unit symbol	Observed result
single VH domain antibody 2.1 (VHH, Human single VH domain antibody (Humabody); tested with a C-terminal His tag; 71-95; also called VH 2.1; VH2.1) VHH: EVQLVESGGGVVQPGRSLRLSCAASGFSFSGYGMHWVRQAPGKGLEWVAYISYDGSNKYYADSVKGRFTISRDNSKNTLYLQMNSLRAEDTAVYYCAKDPAWGLRLGESSSYDFDIWGQGTMVTVSS	pM	14
single VH domain antibody 1.16 (VHH, Human single VH domain antibody (Humabody)) VHH: EVQLLESGGGLVQPGGSLRLSCAASGFSFSSYALSWVRQAPGKGLEWVSSIGENNHTTDYADTVKGRFTISRDNSKNTLYLQMNSLRVEDTAVYYCVKDGVHWGQGTLVTVSS	pM	17
single VH domain antibody 2.17 (VHH, Human single VH domain antibody (Humabody); C-terminal His tag, residues not tied) VHH: EVQLVESGGGVVQPGRSLRLSCAASGFSFSGYGMHWVRQAPGKGLEWVAYISYDASNKYYADNVKGRFTISRDNSKNTLYLQMNSLRAEDTAVYYCAKDPAWGLRLGESSSYDFDIWGQGTMVTVSS	pM	35
1.18-6GS-2.22 (bispecific antibody, linker (G4S)6) EVQLLESGGGLVQPGGSLRLSCAASGFSFSSYALSWVRQAPGKGLEWVSSIGENNATTDYAASVKGRFTISRDNSKNTLYLQMNSLRVEDTAVYYCVKDGVHWGQGTLVTVSSGGGGSGGGGSGGGGSGGGGSGGGGSGGGGSEVQLVESGGGVVQPGRSLRLSCAASGFSFSGYGTHWVRQAPGKGLEWVAYISYDGSNKYYAAPVKGRFTISRDNSKNTLYLQMNSLRAEDTAVYYCAKDAAWGLRLGESSSYDFDIWGQGTMVTVSS	pM	15
1.16-6GS-2.22 (bispecific antibody, linker (G4S)6) EVQLLESGGGLVQPGGSLRLSCAASGFSFSSYALSWVRQAPGKGLEWVSSIGENNHTTDYADTVKGRFTISRDNSKNTLYLQMNSLRVEDTAVYYCVKDGVHWGQGTLVTVSSGGGGSGGGGSGGGGSGGGGSGGGGSGGGGSEVQLVESGGGVVQPGRSLRLSCAASGFSFSGYGTHWVRQAPGKGLEWVAYISYDGSNKYYAAPVKGRFTISRDNSKNTLYLQMNSLRAEDTAVYYCAKDAAWGLRLGESSSYDFDIWGQGTMVTVSS	pM	20
1.18-6GS-2.1 (bispecific antibody, linker (G4S)6) EVQLLESGGGLVQPGGSLRLSCAASGFSFSSYALSWVRQAPGKGLEWVSSIGENNATTDYAASVKGRFTISRDNSKNTLYLQMNSLRVEDTAVYYCVKDGVHWGQGTLVTVSSGGGGSGGGGSGGGGSGGGGSGGGGSGGGGSEVQLVESGGGVVQPGRSLRLSCAASGFSFSGYGMHWVRQAPGKGLEWVAYISYDGSNKYYADSVKGRFTISRDNSKNTLYLQMNSLRAEDTAVYYCAKDPAWGLRLGESSSYDFDIWGQGTMVTVSS	pM	5.7
